# System: 217524-143-R1-J4-PDC spheroids with HUVEC/MSC, viability
# Test method notes: Anticancer human tumor 217524-143-R1-J4-PDC patient-derived pancreatic carcinoma cell line growth inhibition [CLK]; active = viability on the fitted dose curve at most 10% of control; inactive = the rest
# Test conditions: second compound 0.316 µM; first compound 0.0949 µM
Select the correct class. Options are active, inactive and nothing else.

Returns: the outcome recorded for CC(C)CC(NC(=O)C(Cc1ccccc1)NC(=O)c1cnccn1)B(O)O (stereo unspecified) + CN1CCN(c2cc(C(=O)Nc3cc4cc(-c5cnn(C)c5)ccc4cn3)ccn2)CC1 in this assay.
active

Also need C=CC(=O)Nc1cc(Nc2nccc(-c3cn(C)c4ccccc34)n2)c(OC)cc1N(C)CCN(C)C + CNC(=O)c1ccc(Nc2nc(OC3CCCC3)c3c(-c4ccc5nc(C)oc5c4)c[nH]c3n2)c(OC)c1 , thanks.
inactive

Also need CC(C)CC(NC(=O)C(Cc1ccccc1)NC(=O)c1cnccn1)B(O)O (stereo unspecified) + CNC(=O)c1ccc(Nc2nc(OC3CCCC3)c3c(-c4ccc5nc(C)oc5c4)c[nH]c3n2)c(OC)c1 , thanks.
active

Also need NC(=O)C(=Cn1cnc(-c2cc(C(F)(F)F)cc(C(F)(F)F)c2)n1)c1cncnc1 + CN1CCN(c2cc(C(=O)Nc3cc4cc(-c5cnn(C)c5)ccc4cn3)ccn2)CC1 , thanks.
active

Also need C=CC(=O)Nc1cc(Nc2nccc(-c3cn(C)c4ccccc34)n2)c(OC)cc1N(C)CCN(C)C + CN1CCN(c2cc(C(=O)Nc3cc4cc(-c5cnn(C)c5)ccc4cn3)ccn2)CC1 , thanks.
inactive

Also need NC(=O)C(=Cn1cnc(-c2cc(C(F)(F)F)cc(C(F)(F)F)c2)n1)c1cncnc1 + CNC(=O)c1ccc(Nc2nc(OC3CCCC3)c3c(-c4ccc5nc(C)oc5c4)c[nH]c3n2)c(OC)c1 , thanks.
inactive

---

# Tested on: 217524-143-R1-J4-PDC spheroids with HUVEC/MSC, viability
# Test method notes: Anticancer human tumor 217524-143-R1-J4-PDC cell line growth inhibition [CLK]; active = viability on the fitted dose curve at most 10% of control; inactive = the rest;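 note: spheroids exposed to agents for seven days before reading; 100% = DMSO vehicle control viability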
# Test conditions: second compound 1 µM; first compound 1 µM
# Excerpt: A high-throughput screen of multi-cell type tumor spheroids was designed to identify active combinations of […] and targeted small molecules. Complex spheroids include a stromal component modeled by human endothelial cells (HUVEC) and fibroblasts modeled by human mesenchymal stem cells (MSCs). […] Compounds. […] If the clinical Cmax for an agent had not been determined, the highest concentration tested was 10 microM. […]
Select the correct class. Options are 1.0 for active, 0.0 for inactive and nothing else.

Past entries and their recorded results:
CCCS(=O)(=O)Nc1ccc(F)c(C(=O)c2c[nH]c3ncc(-c4ccc(Cl)cc4)cc23)c1F + CN1CCN(c2cc(C(=O)Nc3cc4cc(-c5cnn(C)c5)ccc4cn3)ccn2)CC1
1.0
CCc1c2c(nc3ccc(O)cc13)-c1cc3c(c(=O)n1C2)COC(=O)[C@]3(O)CC + CNC(=O)c1ccc(Nc2nc(OC3CCCC3)c3c(-c4ccc5nc(C)oc5c4)c[nH]c3n2)c(OC)c1
1.0
O=C(c1cc(Cc2n[nH]c(=O)c3ccccc23)ccc1F)N1CCN(C(=O)C2CC2)CC1 + CN1CCN(c2cc(C(=O)Nc3cc4cc(-c5cnn(C)c5)ccc4cn3)ccn2)CC1
1.0
CC(=O)O[C@H]1C(=O)[C@@]2(C)[C@H]([C@H](OC(=O)c3ccccc3)[C@]3(O)C[C@H](OC(=O)[C@H](O)[C@@H](NC(=O)c4ccccc4)c4ccccc4)C(C)=C1C3(C)C)[C@]1(OC(C)=O)CO[C@@H]1C[C@@H]2O + CNC(=O)c1ccc(Nc2nc(OC3CCCC3)c3c(-c4ccc5nc(C)oc5c4)c[nH]c3n2)c(OC)c1
0.0
C=CC(=O)N1CCN(c2nc(=O)n(-c3c(C)ccnc3C(C)C)c3nc(-c4c(O)cccc4F)c(F)cc23)C(C)C1 (centres undefined) + CN1CCN(c2cc(C(=O)Nc3cc4cc(-c5cnn(C)c5)ccc4cn3)ccn2)CC1
1.0
CC1COCCN1c1cc(C2(S(C)(=N)=O)CC2)nc(-c2ccnc3[nH]ccc23)n1 (centres undefined) + CN1CCN(c2cc(C(=O)Nc3cc4cc(-c5cnn(C)c5)ccc4cn3)ccn2)CC1
1.0

Returns: the outcome recorded for CCN1CCN(Cc2ccc(Nc3ncc(F)c(-c4cc(F)c5nc(C)n(C(C)C)c5c4)n3)nc2)CC1 + CN1CCN(c2cc(C(=O)Nc3cc4cc(-c5cnn(C)c5)ccc4cn3)ccn2)CC1 in this assay.
1.0

Also need COc1cccc2c1C(=O)c1c(O)c3c(c(O)c1C2=O)CC(O)(C(=O)CO)CC3OC1CC(N)C(O)C(C)O1 (centres undefined) + CNC(=O)c1ccc(Nc2nc(OC3CCCC3)c3c(-c4ccc5nc(C)oc5c4)c[nH]c3n2)c(OC)c1 , thanks.
1.0

Also need CC1(C)CCC(CN2CCN(c3ccc(C(=O)NS(=O)(=O)c4ccc(NCC5CCOCC5)c([N+](=O)[O-])c4)c(Oc4cnc5[nH]ccc5c4)c3)CC2)=C(c2ccc(Cl)cc2)C1 + CN1CCN(c2cc(C(=O)Nc3cc4cc(-c5cnn(C)c5)ccc4cn3)ccn2)CC1 , thanks.
1.0

Also need C=C(F)C(=O)N1CCN(c2nc(OCC3CCCN3C)nc3c2CCN(c2cccc4cccc(Cl)c24)C3)CC1CC#N (centres undefined) + CNC(=O)c1ccc(Nc2nc(OC3CCCC3)c3c(-c4ccc5nc(C)oc5c4)c[nH]c3n2)c(OC)c1 , thanks.
0.0

Also need COc1cccc2c1C(=O)c1c(O)c3c(c(O)c1C2=O)CC(O)(C(=O)CO)CC3OC1CC(N)C(O)C(C)O1 (centres undefined) + CN1CCN(c2cc(C(=O)Nc3cc4cc(-c5cnn(C)c5)ccc4cn3)ccn2)CC1 , thanks.
1.0
